- System Tested: T1, human serum albumin (human, UniProt P02768 25-609)
- T1 construct: Immobilised on SPR chips; also added in solution in the FcRn occupancy assays; also called HSA; humanSA
- Test Description: SPR Biacore 3000, HSA on chip, pH 7.4
Give measured koff for each item. Keep answers brief.
Record the value in s⁻¹, omitting the unit from your answer.

For reference, reported koff for 2H11-v12 fused at the C-terminus of Fc-ABDEG (two-armed) (Fc fusion, not shown: Fc-ABDEG domain) GGGGSGGGGSGGGGSGGGGSELQVVESGGGLVQAGGSLRLSCAASGRTFRSNTMGWFRQAPGKEREFVAAITWSGGTTYYADSVKGRFAISGDNAKNTVYLQMNSLKPEDTAVYYCAAEGPKWEPWNGIAHPADFGSWGQGTQVTVSS stands at 0.0012

For reference, reported koff for 2H11-v15 fused at the C-terminus of Fc-ABDEG (two-armed) (Fc fusion, not shown: Fc-ABDEG domain) GGGGSGGGGSGGGGSGGGGSELQVVESGGGLVQAGGSLRLSCAASGRTFRSNTMGWFRQAPGKEREFVAAITWSGGTTYYADSVKGRFAISGDNAKNTVYLQMNSLKPEDTAVYYCAAEGPKWEPWNGIYHPAAFGSWGQGTQVTVSS stands at 0.0025

For reference, reported koff for TA-Fc-ABDEG-2H11 (Fc fusion, also called 2H11 parental (two-armed Fc-ABDEG-20GS-Cterm fusion); not shown: Fc-ABDEG domain) GGGGSGGGGSGGGGSGGGGSELQVVESGGGLVQAGGSLRLSCAASGRTFRSNTMGWFRQAPGKEREFVAAITWSGGTTYYADSVKGRFAISGDNAKNTVYLQMNSLKPEDTAVYYCAAEGPKWEPWNGIYHPADFGSWGQGTQVTVSS stands at 0.00072

For reference, reported koff for 2H11-v3 fused at the C-terminus of Fc-ABDEG (two-armed) (Fc fusion, not shown: Fc-ABDEG domain) GGGGSGGGGSGGGGSGGGGSELQVVESGGGLVQAGGSLRLSCAASGRTFRSNTMGWFRQAPGKEREFVAAITWSGGTTYYADSVKGRFAISGDNAKNTVYLQMNSLKPEDTAVYYCAAEGAKWEPWNGIYHPADFGSWGQGTQVTVSS stands at 0.0029

For reference, reported koff for 2H11-v16 fused at the C-terminus of Fc-ABDEG (two-armed) (Fc fusion, not shown: Fc-ABDEG domain) GGGGSGGGGSGGGGSGGGGSELQVVESGGGLVQAGGSLRLSCAASGRTFRSNTMGWFRQAPGKEREFVAAITWSGGTTYYADSVKGRFAISGDNAKNTVYLQMNSLKPEDTAVYYCAAEGPKWEPWNGIYHPADAGSWGQGTQVTVSS stands at 0.00193
